- PROTOCOL_NOTES: probe aLefty1 binding on compound microarray – biochemical, small-molecule microarray, 635/667 nm fluorescence, primary screen (AID 1153);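 also: score merges spot fluorescence with signal-to-noise ratio from the scanned slide images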
- REPORTED_CONDITIONS: higher = more signal
ENDPOINT: composite z-score

[[record]]
compound = "O=C1c2ccccc2[C@](Cc2ccccc2I)(C(=O)O)[C@H](c2ccc(CO)cc2)N1Cc1ccccc1C(F)(F)F"
observed_value = 0.215

[[record]]
compound = "COC(=O)C(CC#Cc1ccc2c(c1)[C@]1(C(=O)N2)[C@H](C(=O)N2CCCCCCC2)[C@H]2C(=O)O[C@H](c3ccccc3)[C@H](c3ccccc3)N2[C@@H]1c1ccccc1OCCO)C(=O)OC"
observed_value = 3.08

[[record]]
compound = "O[C@@H](Cc1ccccc1)[C@@H](/C=C/c1ccccc1)NCc1ccccc1Br"
observed_value = 0.0927

[[record]]
compound = "O=C1O[C@@H](c2ccccc2)[C@@H](c2ccccc2)N2[C@@H](c3ccc(O)cc3)[C@]3(C(=O)Nc4ccc(C#CCCO)cc43)[C@@H](C(=O)N3CCCCCCC3)[C@H]12"
observed_value = 2.4

[[record]]
compound = "C=CCOC(=O)[C@H]1[C@@H]2C(=O)O[C@@H](c3ccccc3)[C@@H](c3ccccc3)N2[C@@H](c2ccc(OCCOC(=O)[C@@H]3C[C@@H]4C(=O)NCC(=O)N4[C@@H]3c3ccc(O)cc3)cc2)[C@]12C(=O)Nc1ccc(I)cc12"
observed_value = 0.0545

[[record]]
compound = "COC(=O)c1c2oc(c1C(=O)OC)C(=O)N[C@H](Cc1ccccc1)Cn1nncc1C1(CCCCC1)NC(=O)N[C@H](CO)CC2"
observed_value = -0.237

[[record]]
compound = "COc1ccc([Si](C)(C)[C@@H]2[C@@H](CCO)O[C@]3(C(=O)N(Cc4cccc(N(C=O)c5ccccc5)c4)c4ccccc43)[C@H]2C)cc1"
observed_value = 0.0811

[[record]]
compound = "C=CCN1Cc2ccccc2C[C@]2(N=C(c3ccc(OCCCO)cc3)O[C@@H]2c2ccccc2)C1=O"
observed_value = 0.32

[[record]]
compound = "COCCOC(=O)N1C(=O)[C@@]2(c3cc(C#CCC(C(=O)OC)C(=O)OC)ccc31)[C@H](c1ccccc1OCCO)N1[C@H](c3ccccc3)[C@H](c3ccccc3)OC(=O)[C@H]1[C@@H]2C(=O)Nc1nc2ccccc2s1"
observed_value = 0.437

[[record]]
compound = "O=C1C2C=CC(C(O)c3ccccn3)N(Nc3ccccc3F)C2C(=O)N1c1ccccc1 (stereo not drawn)"
observed_value = -0.133

[[record]]
compound = "COc1ccccc1CN1C(=O)c2ccccc2[C@](Cc2ccccc2I)(C(=O)NCc2ccccc2)[C@@H]1c1ccc(CO)cc1"
observed_value = 0.183

[[record]]
compound = "C=CCN1C(=O)[C@]2(Cc3ccccc31)N=C(c1ccc(OCCCO)cc1)O[C@@H]2c1ccccc1"
observed_value = 0.165

[[record]]
compound = "CC(C)(C)OC(=O)CC[C@@]1(C(N)=O)N=C(c2ccc(OCCCO)cc2)O[C@@H]1c1ccccc1N=[N+]=[N-]"
observed_value = 0.224


Sourced from PubChem BioAssay
